Target: Keap1 (Homo sapiens (Human), UniProt Q14145)
Sequence (Q14145 whole entry): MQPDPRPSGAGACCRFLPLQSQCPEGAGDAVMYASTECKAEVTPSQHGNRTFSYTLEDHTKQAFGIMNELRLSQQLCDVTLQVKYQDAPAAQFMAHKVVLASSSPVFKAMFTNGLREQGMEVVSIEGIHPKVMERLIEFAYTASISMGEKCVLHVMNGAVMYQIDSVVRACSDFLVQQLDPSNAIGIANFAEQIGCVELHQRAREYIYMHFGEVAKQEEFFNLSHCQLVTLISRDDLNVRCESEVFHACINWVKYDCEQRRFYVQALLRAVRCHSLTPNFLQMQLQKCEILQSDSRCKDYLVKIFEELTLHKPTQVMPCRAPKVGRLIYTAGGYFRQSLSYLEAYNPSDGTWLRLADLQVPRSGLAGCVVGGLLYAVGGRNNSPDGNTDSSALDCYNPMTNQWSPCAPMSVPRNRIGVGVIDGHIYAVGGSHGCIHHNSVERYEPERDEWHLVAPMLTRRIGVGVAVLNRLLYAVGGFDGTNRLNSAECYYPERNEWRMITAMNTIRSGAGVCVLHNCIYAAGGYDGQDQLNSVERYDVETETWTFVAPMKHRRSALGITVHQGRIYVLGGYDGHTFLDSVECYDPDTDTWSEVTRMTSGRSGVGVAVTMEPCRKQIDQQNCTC
Assay: HEK293 ARE luciferase assay
Details: HEK-293 ARE firefly luciferase transiently transfected cells; 18 h incubation; mean of 1 to 20 individual measurements
pEC50: −log10 of the molar value.
endpoint label: pEC50

1. COC1(c2ccc(F)cn2)C=C(C#N)C(=O)C2(CCCC2)C1 (centres unmarked) [Compound 240] : 6.08
2. COC1(c2ncc(F)cc2-c2cnc(C)s2)C=C(C#N)C(=O)C(C)(C)C1 (single isomer, unassigned) [Compound 73] : 8.15
3. COC1(c2ncccc2C(F)(F)F)C=C(C#N)C(=O)C2(CC2)C1 (single isomer, unassigned) [Compound 57] : 7.33
4. COC1(c2ncc(F)cc2-c2cnc(C)c(F)c2)C=C(C#N)C(=O)C(C)(C)C1 (single isomer, unassigned) : 7.80
5. COC1(c2sccc2C)C=C(C#N)C(=O)C(C)(C)C1 (centres unmarked) [Compound 139] : 6.42
6. COC1(c2ncc(F)cc2-c2cncc(Cl)c2)C=C(C#N)C(=O)C(C)(C)C1 (centres unmarked) [Compound 185] : 8.10
7. COC1(c2ncc(F)cc2-c2cnc(C)nc2)C=C(C#N)C(=O)C(C)(C)C1 (centres unmarked) [Compound 183] : 6.92
8. COC1(c2ccc(Cl)cn2)C=C(C#N)C(=O)C(C)(C)C1 (single isomer, unassigned) : 7.26
9. COC1(c2cccc(-c3ccccc3F)n2)C=C(C#N)C(=O)C(C)(C)C1 (centres unmarked) : 6.45
10. COC1(c2nc(C)c(Br)s2)C=C(C#N)C(=O)C(C)(C)C1 (centres unmarked) [Compound 154] : 7.28
11. C/C=C/c1cc(F)cnc1C1(OC)C=C(C#N)C(=O)C(C)(C)C1 (centres unmarked) [Compound 176] : 7.72
12. COC1(c2nc(C)cs2)C=C(C#N)C(=O)C(C)(C)C1 (single isomer, unassigned) [Compound 36] : 7.02
13. COC1(c2ccc(F)cn2)C=C(C#N)C(=O)C(C)(C)C1 (centres unmarked) [Compound 123] : 7.21
14. COC1(c2ccc(Br)cn2)C=C(C#N)C(=O)C(C)(C)C1 (centres unmarked) : 6.46
15. COc1ccccc1-c1cccc(C2(OC)C=C(C#N)C(=O)C(C)(C)C2)n1 (centres unmarked) [Compound 119] : 6.85
16. COC1(c2cccc(Br)n2)C=C(C#N)C(=O)C(C)(C)C1 (centres unmarked) : 6.64

###

Biological target: UniProtKB Q14145
Test: HEK293 ARE luciferase assay
Conditions: HEK-293 ARE firefly luciferase transiently transfected cells; 18 h incubation; mean of 1 to 20 individual measurements
Protocol: The purpose of this assay is to identify small molecule inhibitors of Keap1, preventing Keap1 binding to Nrf2, and thus activating the Nrf2 signalling pathway in HEK-293 ARE firefly luciferase transiently transfected cells. HEK-293 cells express wild-type Keap1 protein and therefore have low constitutive levels of Nrf2 protein and Nrf2-dependent transcription. […] The mean values were calculated from anywhere from 1 to 20 individual measurements.
Binarize EC50 at 100 nM; below is met, at or above is not met.

1) COC1(c2ncc(F)cc2-c2cncc(OC(F)F)c2)C=C(C#N)C(=O)C(C)(C)C1 (single isomer, unassigned) : met
2) COC1(c2cccc(-c3cncnc3)n2)C=C(C#N)C(=O)C(C)(C)C1 (stereo not shown) [Compound 117] : met
3) COC1(c2ncc(C)s2)C=C(C#N)C(=O)C2(CC2)C1 (stereo not shown) : not met
4) COC1(c2ncc(F)cc2Cl)C=C(C#N)C(=O)C(C)(C)C1 (single isomer, unassigned) : met
5) COC1(c2ncc(F)cc2-c2cnc(C(F)(F)F)nc2)C=C(C#N)C(=O)C(C)(C)C1 (single isomer, unassigned) : met
6) COC1(c2ncc(Cl)cc2C(F)F)C=C(C#N)C(=O)C(C)(C)C1 (single isomer, unassigned) [Compound 206] : not met
7) COC1(c2cccc(C(F)(F)F)n2)C=C(C#N)C(=O)C(C)(C)C1 (stereo not shown) : not met

# credit: patent US11479539B2
